Collected MIC K. pneumoniae 063 values appear next to each entry.
# Tested on: Klebsiella pneumoniae
# Format: cell-based
Bridge positions count the residues as written; N and C are the ends. Square brackets hold non-standard residues; d marks the D form. Peptide text beside a SMILES is read from it. * marks the point of attachment. ξ: configuration not given here. dCha = N[C@H](CC1CCCCC1)C(=O)O; Thr(3ξ) = CC(O)[C@H](N)C(=O)O; X22 = NC(CCC(=O)*)C1CCCCC1; Dab = NCC[C@H](N)C(=O)O; X6 = CCCCCCC(CCN)C(=O)*; Dap = NC[C@H](N)C(=O)O
measuredEndpoint: MIC K. pneumoniae 063 (µg/mL)

| compound | comparisonOperator | measuredResult |
| --- | --- | --- |
| CCCCCCC(CCN)C(=O)N[C@H](C(=O)N[C@@H](CCN)C(=O)N[C@H]1CCNC(=O)[C@H]([C@@H](C)O)NC(=O)[C@H](CCN)NC(=O)[C@H](CCN)NC(=O)[C@H](CC(C)C)NC(=O)[C@@H](Cc2ccccc2)NC(=O)[C@H](CCN)NC1=O)C(C)O (some centres unmarked) [Example C5, reference compound] (X6-[Thr(3ξ)][Dab][Dab][Dab][dF]L[Dab][Dab]T; lactam 3-C) | = | 8 |
| CC(C)C[C@@H]1NC(=O)[C@@H](CC2CCCCC2)NC(=O)[C@H](CCN)NC(=O)[C@@H](NC(=O)[C@H](CN)NC(=O)[C@@H](NC(=O)CCC(N)C2CCCCC2)[C@@H](C)O)CCNC(=O)[C@H]([C@@H](C)O)NC(=O)[C@H](CCN)NC(=O)[C@H](CCN)NC1=O (some centres unmarked) [Example 63] (X22-T[Dap][Dab][Dab][dCha]L[Dab][Dab]T; lactam 3-C) | > | 64 |

====

# Test system: Acinetobacter baumannii
# Format: cell-based
Bridge positions count the residues as written; N and C are the ends. Square brackets hold non-standard residues; d marks the D form. Peptide text beside a SMILES is read from it. * marks the point of attachment. ξ: configuration not given here. dBip = N[C@H](Cc1ccc(-c2ccccc2)cc1)C(=O)O; X3 = CCCCCCCCN1CCNC[C@H]1C(=O)*; Thr(3ξ) = CC(O)[C@H](N)C(=O)O; Dab = NCC[C@H](N)C(=O)O

| compound | quantityUnit | MIC A. baumanii ATCC BAA-747 |
| --- | --- | --- |
| CCC(CC)CC(CCN)C(=O)N[C@H](C(=O)N[C@@H](CCN)C(=O)N[C@H]1CCNC(=O)[C@H]([C@@H](C)O)NC(=O)[C@H](CCN)NC(=O)[C@H](CCN)NC(=O)[C@H](CC(C)C)NC(=O)[C@@H](CC2CCCCC2)NC(=O)[C@H](CCN)NC1=O)[C@@H](C)O (single isomer, unassigned; isomer 2) | µg/mL | 0.125 |
| CC(C)C[C@@H]1NC(=O)[C@@H](CC2CCCCC2)NC(=O)[C@H](CCN)NC(=O)[C@@H](NC(=O)[C@H](CCN)NC(=O)[C@@H](NC(=O)C(CCN)c2cccc(Cl)c2)[C@@H](C)O)CCNC(=O)[C@H]([C@@H](C)O)NC(=O)[C@H](CCN)NC(=O)[C@H](CCN)NC1=O (single isomer, unassigned; isomer 2) | µg/mL | 0.125 |
| CCCCCCCCN1CCNC[C@H]1C(=O)N[C@H](C(=O)N[C@@H](CCN)C(=O)N[C@H]1CCNC(=O)[C@H]([C@@H](C)O)NC(=O)[C@H](CCN)NC(=O)[C@H](CCN)NC(=O)[C@H](CC(C)C)NC(=O)[C@@H](Cc2ccc(-c3ccccc3)cc2)NC(=O)[C@H](CCN)NC1=O)C(C)O (stereo partly drawn) [Example 6] (X3-[Thr(3ξ)][Dab][Dab][Dab][dBip]L[Dab][Dab]T; lactam 3-C) | µg/mL | 1 |

====

# Tested on: Klebsiella pneumoniae
# Assay type: cell-based
Bridge positions count the residues as written; N and C are the ends. Square brackets hold non-standard residues; d marks the D form. Peptide text beside a SMILES is read from it. * marks the point of attachment. X9 = Cc1ccc(CO[C@@H](CCN)C(=O)*)cc1; dCha = N[C@H](CC1CCCCC1)C(=O)O; Dab = NCC[C@H](N)C(=O)O; Dap = NC[C@H](N)C(=O)O

| molecule | targetOrTestSystem | MIC K. pneumoniae 063 |
| --- | --- | --- |
| CC(C)C[C@@H]1NC(=O)[C@@H](CC2CCCCC2)NC(=O)[C@H](CCN)NC(=O)[C@@H](NC(=O)[C@H](CCN)NC(=O)[C@@H](NC(=O)C(CN)Cc2ccccc2)C(C)O)CCNC(=O)[C@H]([C@@H](C)O)NC(=O)[C@H](CCN)NC(=O)[C@H](CCN)NC1=O (single isomer, unassigned; isomer 2) | Klebsiella pneumoniae | 64 µg/mL |
| Cc1ccc(CO[C@@H](CCN)C(=O)N[C@H](C(=O)N[C@@H](CN)C(=O)N[C@H]2CCNC(=O)[C@H]([C@@H](C)O)NC(=O)[C@H](CCN)NC(=O)[C@H](CCN)NC(=O)[C@H](CC(C)C)NC(=O)[C@@H](CC3CCCCC3)NC(=O)[C@H](CCN)NC2=O)[C@@H](C)O)cc1 [Example 71] (X9-T[Dap][Dab][Dab][dCha]L[Dab][Dab]T; lactam 3-C) | Klebsiella pneumoniae | 64 µg/mL |

====

# Test system: Escherichia coli
# Format: cell-based
# Protocol: To evaluate the potency and spectrum of the compounds, susceptibility testing was performed against up to nine strains of each of the Gram negative pathogens, Escherichia coli, Pseudomonas aeruginosa, Klebsiella pneumoniae and Acinetobacter baumannii. The values in Table 2 are MIC (μg/mL) against strains of E. coli, K. pneumoniae, P. aeruginosa and A. baumanii, including strains which show elevated MICs to Polymyxin. The values in Table 2A are MIC (μg/mL). […]
Measured MIC E. coli 060 accompanies every entry in the list below.
measuredEndpoint: MIC E. coli 060 (µg/mL)

| molecule | targetOrTestSystem | measuredResult |
| --- | --- | --- |
| CCCCCCCCC1CNCC1C(=O)N[C@H](C(=O)N[C@@H](CCN)C(=O)N[C@H]1CCNC(=O)[C@H]([C@@H](C)O)NC(=O)[C@H](CCN)NC(=O)[C@H](CCN)NC(=O)[C@H](CC(C)C)NC(=O)[C@@H](Cc2ccccc2-c2ccccc2)NC(=O)[C@H](CCN)NC1=O)C(C)O (single isomer, unassigned; isomer 2) [Example 10] | Escherichia coli | 2 |
| CC(C)CC1CNCC(C(=O)N[C@H](C(=O)N[C@@H](CN)C(=O)N[C@H]2CCNC(=O)[C@H]([C@@H](C)O)NC(=O)[C@H](CCN)NC(=O)[C@H](CCN)NC(=O)[C@H](CC(C)C)NC(=O)[C@@H](Cc3ccc(-c4ccccc4)cc3)NC(=O)[C@H](CCN)NC2=O)C(C)O)C1 (single isomer, unassigned; isomer 1) [Example 3] | Escherichia coli | 16 |
| CCCCCCCCC1CNCC1C(=O)N[C@H](C(=O)N[C@@H](CCN)C(=O)N[C@H]1CCNC(=O)[C@H]([C@@H](C)O)NC(=O)[C@H](CCN)NC(=O)[C@H](CCN)NC(=O)[C@H](CC(C)C)NC(=O)[C@@H](Cc2ccc(-c3ccccc3)cc2)NC(=O)[C@H](CCN)NC1=O)C(C)O (single isomer, unassigned; isomer 2) [Example 8] | Escherichia coli | 2 |
| CCCCCCCCC1CNCC1C(=O)N[C@H](C(=O)N[C@@H](CCN)C(=O)N[C@H]1CCNC(=O)[C@H]([C@@H](C)O)NC(=O)[C@H](CCN)NC(=O)[C@H](CCN)NC(=O)[C@H](CC(C)C)NC(=O)[C@@H](Cc2ccccc2-c2ccccc2)NC(=O)[C@H](CCN)NC1=O)C(C)O (single isomer, unassigned; isomer 1) [Example 9] | Escherichia coli | 4 |
| CC(C)CC(CN)C(=O)N[C@H](C(=O)N[C@@H](CN)C(=O)N[C@H]1CCNC(=O)[C@H]([C@@H](C)O)NC(=O)[C@H](CCN)NC(=O)[C@H](CCN)NC(=O)[C@H](CC(C)C)NC(=O)[C@@H](Cc2ccc(Br)cc2)NC(=O)[C@H](CCN)NC1=O)C(C)O (single isomer, unassigned; isomer 1) [Example 13] | Escherichia coli | 32 |
| CC(C)CC1CNCC(C(=O)N[C@H](C(=O)N[C@@H](CN)C(=O)N[C@H]2CCNC(=O)[C@H]([C@@H](C)O)NC(=O)[C@H](CCN)NC(=O)[C@H](CCN)NC(=O)[C@H](CC(C)C)NC(=O)[C@@H](Cc3ccc(Br)cc3)NC(=O)[C@H](CCN)NC2=O)C(C)O)C1 (single isomer, unassigned; isomer 1) [Example 11] | Escherichia coli | 16 |
